Data origin: patent US20240108746A1

experimental target: T1, Biotinylated CD3-specific binding domain SEQ ID NO: 13 (biotinylated (site not stated))
T1 construct: Ligand on the neutravidin (NLC) SPR chip; The same domain is the CD3-specific domain of TCE #1
T1 chain: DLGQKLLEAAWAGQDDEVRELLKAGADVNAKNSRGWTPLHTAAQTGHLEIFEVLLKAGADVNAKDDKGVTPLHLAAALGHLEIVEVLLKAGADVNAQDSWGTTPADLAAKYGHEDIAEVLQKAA
method summary: calculated from SPR koff (ln2/koff)
metric name: Blocking T1/2

Below, each entry is followed by its recorded Blocking T1/2 result.
binder	Blocking T1/2
Binder #8 (designed binder) MRGSHHHHHHGSDLGKKLLQAARAGQLDEVRELLKAGADVNAKDHYGWTPLHIAAQRGHLEIVEVLLKAGADVNAKDWLGWTPLHVAASHGHLEIVEVLLKAGADVNAKDLSGRTPLHIAARQGHLEIVEVLLKAGADVNAQDKSGKTPADLAARAGHQDIAEVLQKAA	> 3.9 h
Binder #7 (designed binder) MRGSHHHHHHGSDLGKKLLQAARAGQLDEVRELLKAGADVNAKDHYGWTPLHLAAAEGHLEIVEVLLKAGADVNAKDWIGYTPLHIAASHGHLEIVEVLLKAGADVNAKDSSGKTPLHIAAQHGHLEIVEVLLKAGADVNAQDKSGKTPADLAARAGHQDIAEVLQKAA	> 3.9 h
Binder #2 (designed binder) MRGSHHHHHHGSDLGKKLLQAARAGQLDEVRELLKAGADVNAKDFKGLTPLHLAAAHGHLEIVEVLLKAGADVNAKDVYGWTPLHWAAASGHLEIVEVLLKAGADVNAKDWLGITPLHLAASHGHLEIVEVLLKAGADVNAQDKSGKTPADLAARAGHQDIAEVLQKAA	4.8 h
Binder #9 (designed binder) MRGSHHHHHHGSDLGKKLLQAARAGQLDEVRELLKAGADVNAKDHYGWTPLHLAASEGHLEIVEVLLKAGADVNAKDWIGWTPLHLAASFGHLEIVEVLLKAGADVNAKDVSGKTPLHIAARQGHLEIVEVLLKAGADVNAQDKSGKTPADLAARAGHQDIAEVLQLQKAA	> 3.9 h
Binder #5 (designed binder) MRGSHHHHHHGSDLGKKLLQAARAGQLDEVRELLKAGADVNAKDHYGWTPLHIAAQIGHLEIVEVLLKAGADVNAKDWIGYTPLHLAASHGHLEIVEVLLKAGADVNAKDVSGKTPLHVAAAHGHLEIVEVLLKAGADVNAQDKSGKTPADLAARAGHQDIAEVLQKAA	> 3.9 h

Kindly consider the entry below.
The recorded Blocking T1/2 for Binder #4 (designed binder) MRGSHHHHHHGSDLGKKLLQAARAGQLDEVRELLKAGADVNAKDFKGLTPLHLAAEHGHLEIVEVLLKAGADVNAKDVYGWTPLHWAAAKGHLEIVEVLLKAGADVNAKDWLGITPLHLAASHGHLEIVEVLLKAGADVNAQDKSGKTPADLAARAGHQDIAEVLQKAA is 10.1 h
